FYI, the data here is from patent US10501421B1.

Listed here: items and their measured pEC50.
# SYSTEM: UniProt Q07889
# PROCEDURE_SUMMARY: SOS-mediated nucleotide exchange on Ras (BODIPY-GDP fluorescence)
# CONDITION: SOS-mediated exchange of BODIPY-GDP for GTP on Ras
# Procedure: Compounds of the present invention were tested for their ability to modify the rate at which Ras exchanges a labeled nucleotide guanosine diphosphate (GDP) analog for guanosine triphosphate (GTP). […] Changes in fluoresence indicating exchange of the labeled GDP for GTP are monitored over time. Raw fluorescence data was fit to a single exponential decay function and derived rates were plotted as mean values. […]
pEC50: −log10 of the molar value.

INPUT: GET pEC50 | system: UniProt Q07889 | item: `Cc1cc2nc(N3CC(CN)C3)n(Cc3ccc(F)c(Cl)c3)c2cc1C`
OUTPUT: > 6.00

INPUT: Write pEC50 of `Cc1cc2c(nc(N3CCNCC3)n2Cc2ccc(F)c(C)c2)c(CN2CCCC2)n1` ; system used: UniProt Q07889
OUTPUT: 4.00 to 4.52

INPUT: Give pEC50 only, for `Cc1cc2c(nc(N3CCNCC3)n2Cc2ccc(F)c(C)c2)c(-c2ccccc2F)n1` , using UniProt Q07889 data.
OUTPUT: 5.30 to 6.00

INPUT: Send back UniProt Q07889 pEC50 of `COc1ccc(-c2nc(C)cc3c2nc(N2CCNCC2)n3Cc2ccc(F)c(C)c2)cc1OC` only.
OUTPUT: 4.52 to 5.30

----------
# SYSTEM: Ras GEF SOS (Son of Sevenless) (Homo sapiens)
# Sequence (Q07889 564-1049 limits assumed): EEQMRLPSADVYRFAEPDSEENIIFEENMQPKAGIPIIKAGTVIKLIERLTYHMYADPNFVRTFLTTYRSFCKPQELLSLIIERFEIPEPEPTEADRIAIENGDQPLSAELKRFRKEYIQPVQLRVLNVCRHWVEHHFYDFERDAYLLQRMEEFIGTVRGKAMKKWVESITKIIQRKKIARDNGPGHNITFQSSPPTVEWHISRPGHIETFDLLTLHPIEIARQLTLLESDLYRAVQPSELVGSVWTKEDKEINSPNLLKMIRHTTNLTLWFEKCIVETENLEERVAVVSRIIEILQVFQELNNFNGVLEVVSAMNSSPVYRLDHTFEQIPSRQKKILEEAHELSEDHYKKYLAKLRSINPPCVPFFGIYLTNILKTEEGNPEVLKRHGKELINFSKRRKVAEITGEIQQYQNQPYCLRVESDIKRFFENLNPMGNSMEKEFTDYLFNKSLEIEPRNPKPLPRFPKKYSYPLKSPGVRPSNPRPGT
# Sequence (P01112 1-166 partner limits assumed): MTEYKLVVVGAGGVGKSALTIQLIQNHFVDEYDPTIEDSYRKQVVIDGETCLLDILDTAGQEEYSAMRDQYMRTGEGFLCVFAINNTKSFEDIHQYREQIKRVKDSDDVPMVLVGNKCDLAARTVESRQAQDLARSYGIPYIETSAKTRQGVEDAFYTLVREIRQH
# PROCEDURE_SUMMARY: SOS-mediated nucleotide exchange on Ras (BODIPY-GDP fluorescence)
# CONDITION: SOS-mediated exchange of BODIPY-GDP for GTP on Ras
Counter-ions that a name gives are not always drawn.
MEASURED_PROPERTY: EC50

Below, each entry is followed by its recorded EC50 result.
- COMPOUND: "COc1ccc(-c2cccc3c2nc(N2CCNCC2)n3Cc2ccc(C(F)(F)F)cc2)cc1OC [Example 91]"
  EC50: "5 to 30 µM"
- COMPOUND: "Cc1cc2nc(N3CCNCC3)n(Cc3ccc(Cl)cc3)c2cc1C [Example 19, trifluoroacetate]"
  EC50: "5 to 30 µM"
- COMPOUND: "Cc1cc(OC2CCNCC2)c2nc(N3CCNCC3)n(Cc3cc(C)c(F)c(C)c3)c2c1 [Example 315]"
  EC50: "< 1 µM"
- COMPOUND: "Cc1cc(Cn2c(N3CCNCC3)nc3c(N4CCOCC4)cc(Cl)cc32)cc(C)c1F [Example 312]"
  EC50: "< 1 µM"
- COMPOUND: "Fc1ccc(Cn2c(N3CCOCC3)nc3ccccc32)cc1 [Example 9]"
  EC50: "30 to 100 µM"
- COMPOUND: "Cc1cnc2nc(N3CC(CN)C3)n(Cc3ccc(F)c(C)c3)c2c1 [Example 248]"
  EC50: "< 1 µM"

INPUT: Quote Ras GEF SOS (Son of Sevenless) (Homo sapiens) EC50 for entry CC(C)CN1CC[C@@H](C(=O)c2ccccc2)[C@@H]1c1cc(Cl)cc2c1nc(N1CCNCC1)n2Cc1ccc(F)c(Cl)c1 [Example 151, trifluoroacetate] .
OUTPUT: 5 to 30 µM

INPUT: Output reported EC50 of the compound COCCN1CCN(c2cc(C)cc3c2nc(N2CCNCC2)n3Cc2cc(C)c(F)c(C)c2)CC1 [Example 195, trifluoroacetate] on Ras GEF SOS (Son of Sevenless) (Homo sapiens).
OUTPUT: 1 to 5 µM

----------
# SYSTEM: UniProt:Q07889
# PROCEDURE_SUMMARY: SOS-mediated nucleotide exchange on Ras (BODIPY-GDP fluorescence)
# CONDITION: SOS-mediated exchange of BODIPY-GDP for GTP on Ras
Counter-ions that a name gives are not always drawn.
# EC50 values compiled below

Worked examples follow.
- COMPOUND: "Cc1cc(Cn2c(N3CCNCC3)nc3c(CN4CCCC4)cc(Cl)cc32)cc(C)c1F [Example 130, trifluoroacetate]"
  MEASURED_PROPERTY: "EC50"
  RESULT: "< 1 µM"
- COMPOUND: "Cc1cc(CO)c2nc(N3CCNCC3)n(Cc3cc(C)c(F)c(C)c3)c2c1"
  MEASURED_PROPERTY: "EC50"
  RESULT: "< 1 µM"

As a next step, examine the compound that follows.
INPUT: Return reported EC50 for target or system UniProt:Q07889, item Fc1ccc(Cn2c(NCC3CNC3)nc3ccc(Cl)cc32)cc1Cl [Example 75, trifluoroacetate] .
OUTPUT: 1 to 5 µM

----------
# SYSTEM: Ras GEF SOS (Son of Sevenless) (Homo sapiens)
# PROCEDURE_SUMMARY: SOS-mediated nucleotide exchange on Ras (BODIPY-GDP fluorescence)
# CONDITION: SOS-mediated exchange of BODIPY-GDP for GTP on Ras
# Procedure: Compounds of the present invention were tested for their ability to modify the rate at which Ras exchanges a labeled nucleotide guanosine diphosphate (GDP) analog for guanosine triphosphate (GTP). […] Changes in fluoresence indicating exchange of the labeled GDP for GTP are monitored over time. Raw fluorescence data was fit to a single exponential decay function and derived rates were plotted as mean values. […]
pEC50: −log10 of the molar value. Counter-ions that a name gives are not always drawn.
MEASURED_PROPERTY: pEC50

Use these answered entries as a reference point.
- MOLECULE: "Cc1cc2nc(N3CCNCC3)n(Cc3ccc(F)c(Cl)c3)c2cc1C [Example 16, trifluoroacetate]"
  pEC50: "5.30 to 6.00"
- MOLECULE: "CCN(CC)Cc1cc(Cl)cc2c1nc(N1CCNCC1)n2Cc1ccc(F)c(Cl)c1 [Example 136, trifluoroacetate]"
  pEC50: "> 6.00"

INPUT: Read the entry Cc1ccc2nc(N3CCNCC3)n(Cc3ccc(F)c(Cl)c3)c2c1 [Example 61, trifluoroacetate] and write its reported pEC50.
OUTPUT: 5.30 to 6.00

INPUT: Check the records and state pEC50 for Cc1cc(Cn2c(NCCN)nc3c([C@@H](N)c4ccccc4)cc(Cl)cc32)cc(C)c1F [Example 160, trifluoroacetate]
OUTPUT: 5.30 to 6.00

----------
# SYSTEM: Ras GEF SOS (Son of Sevenless) (Homo sapiens)
# PROCEDURE_SUMMARY: SOS-mediated nucleotide exchange on Ras (BODIPY-GDP fluorescence)
# CONDITION: SOS-mediated exchange of BODIPY-GDP for GTP on Ras
Structures can show the parent of a compound that is named as a salt.
Parameter: EC50. Scope: all listed entries.

Check out these entries, answers already filled in.
- COMPOUND: "Fc1ccc(Cn2c(C3CCNCC3)nc3ccccc32)cc1Cl [Example 55, trifluoroacetate]"
  MEASURED_PROPERTY: "EC50"
  RESULT: "5 to 30 µM"
- COMPOUND: "Cc1cc(N2CCC(N)CC2)c2nc(N3CCNCC3)n(Cc3cc(C)c(F)c(C)c3)c2c1 [Example 188, trifluoroacetate]"
  MEASURED_PROPERTY: "EC50"
  RESULT: "1 to 5 µM"
- COMPOUND: "Clc1ccc(Cn2cnc3ncccc32)cc1"
  MEASURED_PROPERTY: "EC50"
  RESULT: "30 to 100 µM"
- COMPOUND: "Cc1cc2c(nc(N3CCNCC3)n2Cc2ccc(F)c(C)c2)c(-c2ccc(CN)cc2)n1"
  MEASURED_PROPERTY: "EC50"
  RESULT: "1 to 5 µM"
- COMPOUND: "Fc1cc(F)cc(Cn2c(N3CCNCC3)nc3ccccc32)c1 [Example 14, trifluoroacetate]"
  MEASURED_PROPERTY: "EC50"
  RESULT: "5 to 30 µM"

INPUT: Answer with reported EC50 of Cc1cc(Cn2c(N3CCNCC3)nc3c(-c4ccccc4C#Cc4ccccc4)cc(Cl)cc32)cc(C)c1F [Example 182, trifluoroacetate]
OUTPUT: 1 to 5 µM

INPUT: Give a short answer stating reported EC50 for `Cc1cc(Cn2c(N3CCNCC3)nc3c(CC(=O)O)cc(Cl)cc32)cc(C)c1F` .
OUTPUT: < 1 µM

----------
# SYSTEM: Son of Sevenless (SOS) (Homo sapiens, UniProt Q07889)
# Sequence (Q07889 564-1049 limits assumed): as the sequence (Q07889 564-1049 limits assumed) above
pKi: −log10 of the molar value. Counter-ions that a name gives are not always drawn.
MEASURED_PROPERTY: pKi

- COMPOUND: "CCc1cc2c(cc1C)nc(N1CCNCC1)n2Cc1ccc(F)c(Cl)c1 [Example 66, trifluoroacetate]"
  pKi: "< 5.30"

INPUT: Please look at CC[C@H](N)c1cc(C)cc2c1nc(N1CCNCC1)n2Cc1cc(C)c(F)c(C)c1 [Example 161, trifluoroacetate] and tell me its recorded pKi on Son of Sevenless (SOS) (Homo sapiens, UniProt Q07889).
OUTPUT: 6.00 to 6.30

INPUT: State, for Son of Sevenless (SOS) (Homo sapiens, UniProt Q07889), measured pKi of the compound listed here: Cc1cc(OCCN)c2nc(NCCN)n(Cc3cc(C)c(F)c(C)c3)c2c1 [Example 320]
OUTPUT: 6.00 to 6.30

INPUT: For Son of Sevenless (SOS) (Homo sapiens, UniProt Q07889), give the measured pKi of the entry Cc1cc(Cn2c(N3CCNCC3)nc3c(-c4ccccc4C#Cc4ccccc4Cl)cc(Cl)cc32)cc(C)c1F [Example 183, trifluoroacetate]
OUTPUT: 6.00 to 6.30

INPUT: // fetch pKi; item: Cc1cc2nc(N3CCNCC3)n(Cc3ccc(F)c(C4CC4)c3)c2cc1C [Example 51, trifluoroacetate] ; system: Son of Sevenless (SOS) (Homo sapiens, UniProt Q07889)
OUTPUT: < 5.30

INPUT: Quote Son of Sevenless (SOS) (Homo sapiens, UniProt Q07889) pKi for entry Cc1cnc2nc(N3CC(CN)C3)n(Cc3ccc(F)c(C)c3)c2c1 [Example 248] .
OUTPUT: 6.00 to 6.30

INPUT: Please look at Cc1cc(Cn2c(N3CCNCC3)nc3c(-c4ccnn4-c4ccc(C(C)(C)C)cc4)cc(Cl)cc32)cc(C)c1F [Example 178, trifluoroacetate] and tell me its recorded pKi on Son of Sevenless (SOS) (Homo sapiens, UniProt Q07889).
OUTPUT: < 5.30
